- Tested on: Cryptococcus neoformans
- ASSAY INFO: Antifungal activity against Cryptococcus neoformans ATCC 208821 after 72 hrs by MTT based microbroth dilution assay
- Assay type: functional
- CONDITION INFO: ATCC 208821, 72 h
Each entry below lists one item and its recorded MIC value.
Please reply with the bare figure in µg/mL and do not write the unit itself.

Solved entries:
INSERT INTO measurements (smiles_notation, measured_on, endpoint_label, uom, measured_number) VALUES
  ('C[C@@H]1[C@H](O)[C@@H](C)/C=C/C=C/C=C/C=C/C=C/C=C/C=C/[C@H](O[C@@H]2O[C@H](C)[C@@H](O)[C@H](N)[C@@H]2O)C[C@@H]2O[C@](O)(C[C@@H](O)C[C@@H](O)[C@H](O)CC[C@@H](O)C[C@@H](O)CC(=O)O[C@H]1C)C[C@H](O)[C@H]2C(=O)O', 'Cryptococcus neoformans', 'MIC', 'µg/mL', 2),
  ('CO/C1=C\C(C)=C\[C@@H](C)[C@@H](O)[C@@H](C)C/C(C)=C/C=C/[C@H](OC)[C@@H]([C@@H](C)[C@@H](O)[C@H](C)[C@@]2(O)C[C@@H](OC(=O)/C=C/C(N)=O)[C@H](C)[C@@H](C(C)C)O2)OC1=O', 'Cryptococcus neoformans', 'MIC', 'µg/mL', 25),
  ('CO/C1=C\C(C)=C\[C@@H](C)[C@@H](O)[C@@H](C)C/C(C)=C/C=C/[C@H](OC)[C@@H]([C@@H](C)[C@@H](O)[C@H](C)[C@@]2(O)CC[C@H](C)[C@@H](C(C)C)O2)OC1=O', 'Cryptococcus neoformans', 'MIC', 'µg/mL', 25);

Next:
Challenge: If you can, please state the reported MIC value of `CO/C1=C\C(C)=C\[C@@H](C)[C@@H](O)[C@@H](C)C/C(C)=C/C=C/[C@H](OC)[C@@H]([C@@H](C)[C@@H](O)[C@H](C)[C@@]2(O)C[C@@H](OC(=O)/C=C/C(=O)O)[C@H](C)[C@@H](C(C)C)O2)OC1=O` .
Response given: 1.56
